I'd be grateful if you could share measured Ki for these entries.
# target.desc: human orexin 1 receptor (Homo sapiens (Human))
# Sequence (O43613 whole entry): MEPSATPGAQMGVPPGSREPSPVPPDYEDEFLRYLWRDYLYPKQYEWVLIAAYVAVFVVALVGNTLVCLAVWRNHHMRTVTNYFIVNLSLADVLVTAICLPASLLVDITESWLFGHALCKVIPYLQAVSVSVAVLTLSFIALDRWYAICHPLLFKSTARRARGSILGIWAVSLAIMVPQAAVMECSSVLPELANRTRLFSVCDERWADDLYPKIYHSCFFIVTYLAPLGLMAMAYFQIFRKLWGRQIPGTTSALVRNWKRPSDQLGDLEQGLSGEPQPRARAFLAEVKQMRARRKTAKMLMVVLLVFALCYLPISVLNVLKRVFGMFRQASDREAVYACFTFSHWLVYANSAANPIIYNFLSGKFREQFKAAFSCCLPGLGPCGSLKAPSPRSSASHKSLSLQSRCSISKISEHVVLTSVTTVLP
# experimental.details: Human orexin 1 receptor radioligand binding (competitive binding, CHO membranes)
# particulars: human orexin 1 receptor; Table 2, averages of 2-20 runs; read-out: hOX1 Ki
Answers are plain numbers, in nM.

>>> df
                                   molecule  assay_metric  recorded_result
0  Cc1cc(C)nc(OCC2CC3CCC2N3C(=O)c2ccccc2-c2cccs2)n1 (racemic)            Ki              111

Data request: Report Ki, nothing else, for this molecule: O=C(c1ccccc1-n1cccn1)N1C2CCC1C(COc1ccc(F)cn1)C2 (racemic)
Data returned: 134

* * *

# target.desc: human orexin 1 receptor (Homo sapiens (Human))
# experimental.details: Human orexin 1 receptor radioligand binding (competitive binding, CHO membranes)
assay.metric: Ki
Please append the unit to your numeric answer.

Known results for compounds:
>>> df
                                   compound  recorded_result
0  O=C(c1c(F)cccc1-c1ncccn1)N1C2CCC1C(COc1ccc(F)cn1)C2 (racemic) [Example 31]            43 nM
1  O=C(c1cccc(F)c1-c1ncccn1)N1[C@@H]2CC[C@H]1[C@H](Nc1cnc(C(F)(F)F)cn1)C2 [Example 238]            15 nM

Below are 3 compounds. Give each one its Ki.
1. CCOc1ncc2ccccc2c1C(=O)N1C2CCC1C(COc1ccccn1)C2 (racemic) [Example 83]
2. O=C(c1cccc(F)c1-n1nccn1)N1C2CCC1C(Oc1ccc(C(F)(F)F)cn1)C2 (racemic) [Example 423]
3. O=C(c1cccc(F)c1-n1nccn1)N1C2CCC1C(COc1nccc(C(F)(F)F)n1)C2 (racemic) [Example 134]

Data returned:
["13 nM", "174 nM", "690 nM"]

* * *

# target.desc: UniProt:O43614
# experimental.details: Human orexin 2 receptor radioligand binding ([3H]-EMPA competition, HEK293 membranes)
# particulars: Table 2, further testing; averages from 2-20 runs; read-out: hOX2 Ki
assay.metric: pKi
One number for each entry, as −log10 of the molar value.

Below are 2 molecules. Give each one its pKi.
1. O=C(c1cccc(F)c1-c1ncc(F)cn1)N1[C@@H]2CC[C@H]1[C@H](Nc1ncc(C(F)(F)F)cc1F)C2 [Example 463]
2. Cc1cccc(C(=O)N2[C@@H]3CC[C@H]2[C@H](Nc2ncc(C(F)(F)F)cc2F)C3)c1-n1nccn1 [Example 450]

Data returned:
1. 5.72
2. 6.47

* * *

# target.desc: human orexin 2 receptor (Homo sapiens (Human))
# Sequence (O43614 whole entry): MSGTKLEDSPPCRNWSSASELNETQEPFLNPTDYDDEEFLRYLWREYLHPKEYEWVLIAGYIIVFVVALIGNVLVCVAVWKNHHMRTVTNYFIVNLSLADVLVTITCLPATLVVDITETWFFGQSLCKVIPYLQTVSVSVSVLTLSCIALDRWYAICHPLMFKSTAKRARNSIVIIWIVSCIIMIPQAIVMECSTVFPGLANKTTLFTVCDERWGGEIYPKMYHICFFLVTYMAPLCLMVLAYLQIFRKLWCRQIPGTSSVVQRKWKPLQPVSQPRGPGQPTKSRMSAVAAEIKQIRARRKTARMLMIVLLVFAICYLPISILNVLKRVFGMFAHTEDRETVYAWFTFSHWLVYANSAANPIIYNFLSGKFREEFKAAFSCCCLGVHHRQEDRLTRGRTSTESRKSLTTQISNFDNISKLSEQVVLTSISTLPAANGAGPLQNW
# experimental.details: Human orexin 2 receptor radioligand binding ([3H]-EMPA competition, HEK293 membranes)
# particulars: human orexin 2 receptor; Table 2, averages from between 2-20 runs; read-out: hOX2 Ki
assay.metric: pKi
One number for each entry, as −log10 of the molar value.

>>> print(df.to_string())
                                   molecule  recorded_result
0  Cc1cccc(C(=O)N2[C@@H]3CC[C@H]2[C@H](Nc2ccc(C#N)cn2)C3)c1-c1ncccn1             5.08

Below are 6 molecules. Give each one its pKi.
1. O=C(c1cccc(F)c1-n1nccn1)N1C2CCC1C(Oc1ccc(Br)cn1)C2 (racemic)
2. O=C(c1ccccc1-c1ncccn1)N1[C@@H]2CC[C@H]1[C@H](Nc1cnc(C(F)(F)F)cn1)C2
3. Cc1cccc(C(=O)N2[C@@H]3CC[C@H]2[C@H](Nc2cnc(Br)cn2)C3)c1-n1nccn1
4. O=C(c1cccc(F)c1-c1ncccn1)N1C2CCC1C(Nc1ccc(Br)cn1)C2 (stereo not shown)
5. Cc1cccc(C(=O)N2[C@@H]3CC[C@H]2[C@H](Nc2ccc(C#N)cn2)C3)c1-n1nccn1
6. Cc1noc(-c2cc(F)ccc2C(=O)N2[C@@H]3CC[C@H]2[C@H](Nc2cnc(C(F)(F)F)cn2)C3)n1

Data returned:
1: 5.22; 2: 6.24; 3: 6.44; 4: 5.89; 5: 5.36; 6: 5.32
